Provide the recorded protein stability index for the entries that follow.
Tested on: Saccharomyces cerevisiae;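 further: PSI is a weighted mean of sequencing reads over stability bins, variants kept only with over 10 reads, mCherry proximal and sfGFP distal, peptide attached via GGGS linker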
Assay: protein stability index of tFT-peptide fusion (C-terminal peptide) (PSI (0-1 scale)); higher = more stable (slower turnover)
Conditions: genetic background: wild type; temperature: 30 C
Please respond with just the number, no unit label.

I would be grateful if you could share the reported protein stability index for "WGQGTGFWGLFG" .
0.681

Similarly, "AIQNSNLNTKVR" ?
0.675

Similarly, "AVLTDKKGRVRS" ?
0.703

Similarly, "KKKREKKKENTK" ?
0.711

Similarly, "LLDGGGGGVGEG" ?
0.765

Similarly, "CFLPGFYFLFSI" ?
0.561

Similarly, "GWVLRERGRGVG" ?
0.572

Similarly, "LISSVRLACGVS" ?
0.554

Similarly, "LGIPKLLCFVCT" ?
0.386

Similarly, "VCVYLVSLPYLA" ?
0.303

Similarly, "TEYRRRPNETAM" ?
0.705

Similarly, "CSYIQTSKTVVS" ?
0.756

Similarly, "CCVYFLSMFFVL" ?
0.575

Similarly, "PPHGRKRRGKEP" ?
0.776

Similarly, "AVGPLTGPRPPV" ?
0.699
